Field: pIC50. Provide a value for each of the molecules that follow.
- System Under Test: hERG channels (Homo sapiens, UniProt Q12809)
- Construct: expressed in transfected cells
- Sequence (Q12809 whole entry): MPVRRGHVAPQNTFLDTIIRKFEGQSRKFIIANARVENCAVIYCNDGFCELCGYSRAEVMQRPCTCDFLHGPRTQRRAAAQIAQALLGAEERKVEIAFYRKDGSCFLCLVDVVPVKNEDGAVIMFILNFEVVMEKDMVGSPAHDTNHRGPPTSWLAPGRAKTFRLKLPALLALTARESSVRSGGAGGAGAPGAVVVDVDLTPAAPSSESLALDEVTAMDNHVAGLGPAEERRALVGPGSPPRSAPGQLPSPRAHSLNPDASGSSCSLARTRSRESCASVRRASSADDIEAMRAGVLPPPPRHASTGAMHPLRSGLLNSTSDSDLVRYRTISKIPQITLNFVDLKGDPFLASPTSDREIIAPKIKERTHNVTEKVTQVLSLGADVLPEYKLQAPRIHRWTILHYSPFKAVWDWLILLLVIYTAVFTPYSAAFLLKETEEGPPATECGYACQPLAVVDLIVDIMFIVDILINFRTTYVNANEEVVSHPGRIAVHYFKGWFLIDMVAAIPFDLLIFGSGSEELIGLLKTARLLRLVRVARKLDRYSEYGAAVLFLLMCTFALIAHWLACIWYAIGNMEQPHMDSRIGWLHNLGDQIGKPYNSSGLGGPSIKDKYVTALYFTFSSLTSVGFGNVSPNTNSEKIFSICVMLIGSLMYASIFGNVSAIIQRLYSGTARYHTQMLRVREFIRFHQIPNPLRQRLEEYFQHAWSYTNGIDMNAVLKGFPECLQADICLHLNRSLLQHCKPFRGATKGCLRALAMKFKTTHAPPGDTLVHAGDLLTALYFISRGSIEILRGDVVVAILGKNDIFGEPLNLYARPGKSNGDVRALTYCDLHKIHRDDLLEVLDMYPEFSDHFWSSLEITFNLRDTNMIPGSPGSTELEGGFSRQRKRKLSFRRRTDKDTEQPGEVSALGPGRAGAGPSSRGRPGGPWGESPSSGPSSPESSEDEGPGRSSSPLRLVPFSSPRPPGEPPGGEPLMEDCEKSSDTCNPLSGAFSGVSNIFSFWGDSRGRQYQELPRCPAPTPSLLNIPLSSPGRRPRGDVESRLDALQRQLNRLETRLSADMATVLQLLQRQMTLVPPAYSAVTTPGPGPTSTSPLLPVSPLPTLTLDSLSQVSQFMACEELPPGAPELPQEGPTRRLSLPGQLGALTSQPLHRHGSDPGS
- Assay Text: hERG electrophysiology assay (patch clamp, HEK 293 cells)
- Type: cell-based
- Condition Label: HEK 293 cells stably expressing hERG, patch clamp tail current
Numbers only, as −log10 of the molar value.

Molecule: O=C1[C@H](N2CC[C@@H](c3ccc(O)cc3)[C@H](F)C2)CCN1Cc1ccc(C(F)F)cc1 (single isomer, unassigned) [example 6]
Result Number: 4.87

Task item: What value of measured pIC50 is listed for Cc1ccc(CN2CC[C@@H](N3CC[C@@H](c4ccc(O)cc4)[C@H](F)C3)C2=O)cc1 [example 1] ?
Reply: 4.55

---

Field: Ki. Provide a value for each of the molecules that follow.
- System Under Test: NR2B-subtype NMDA receptors (Rattus norvegicus, UniProt P35439+Q00960)
- Construct: For membrane preparation, rat forebrains were thawed on ice
- Sequence (Q00960 27-1482, other chains not shown): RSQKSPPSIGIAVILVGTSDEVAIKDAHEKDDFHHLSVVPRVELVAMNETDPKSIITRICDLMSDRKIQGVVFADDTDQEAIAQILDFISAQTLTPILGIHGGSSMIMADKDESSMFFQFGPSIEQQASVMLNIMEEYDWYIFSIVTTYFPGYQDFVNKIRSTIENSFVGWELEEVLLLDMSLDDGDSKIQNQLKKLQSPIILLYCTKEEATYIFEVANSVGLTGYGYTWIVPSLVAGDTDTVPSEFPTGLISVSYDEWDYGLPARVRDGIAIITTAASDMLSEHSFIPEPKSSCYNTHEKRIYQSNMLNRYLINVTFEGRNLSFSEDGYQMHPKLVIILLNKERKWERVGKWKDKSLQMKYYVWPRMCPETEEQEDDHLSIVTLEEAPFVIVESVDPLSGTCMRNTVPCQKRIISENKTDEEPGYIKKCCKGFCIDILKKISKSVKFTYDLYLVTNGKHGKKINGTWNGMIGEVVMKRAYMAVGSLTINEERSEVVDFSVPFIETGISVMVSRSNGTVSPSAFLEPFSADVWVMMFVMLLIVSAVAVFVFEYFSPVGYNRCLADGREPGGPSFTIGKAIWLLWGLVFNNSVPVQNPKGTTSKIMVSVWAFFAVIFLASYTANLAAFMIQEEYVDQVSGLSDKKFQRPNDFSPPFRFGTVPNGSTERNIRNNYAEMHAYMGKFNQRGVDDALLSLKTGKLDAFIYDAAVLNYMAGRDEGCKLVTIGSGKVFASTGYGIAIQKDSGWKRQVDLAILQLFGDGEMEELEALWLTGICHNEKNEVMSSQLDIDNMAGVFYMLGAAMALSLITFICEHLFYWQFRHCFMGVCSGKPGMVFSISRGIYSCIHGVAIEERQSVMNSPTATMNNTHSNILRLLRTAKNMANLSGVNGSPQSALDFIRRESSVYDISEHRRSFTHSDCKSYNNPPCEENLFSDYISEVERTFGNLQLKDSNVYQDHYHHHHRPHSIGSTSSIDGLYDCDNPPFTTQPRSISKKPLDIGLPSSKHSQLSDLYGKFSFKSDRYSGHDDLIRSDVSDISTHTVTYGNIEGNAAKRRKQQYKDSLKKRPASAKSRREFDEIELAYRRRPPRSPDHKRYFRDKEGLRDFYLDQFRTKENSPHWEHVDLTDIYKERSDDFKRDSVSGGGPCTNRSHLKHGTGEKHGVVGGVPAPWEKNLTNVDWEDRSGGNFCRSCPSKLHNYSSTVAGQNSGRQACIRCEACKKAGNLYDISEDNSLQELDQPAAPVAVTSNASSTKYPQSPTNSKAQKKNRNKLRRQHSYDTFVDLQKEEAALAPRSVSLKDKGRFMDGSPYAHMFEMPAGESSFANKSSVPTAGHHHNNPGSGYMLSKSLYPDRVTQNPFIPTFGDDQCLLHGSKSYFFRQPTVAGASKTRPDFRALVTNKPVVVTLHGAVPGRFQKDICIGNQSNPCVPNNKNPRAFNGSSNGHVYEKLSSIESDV
- Assay Text: Radioligand binding assay (3H Ro 25-6981 competition, rat forebrain membranes)
- Condition Label: 3H Ro 25-6981 4 nM
- Description: For membrane preparation, rat forebrains were thawed on ice for 20 minutes in homogenization buffer composed of 50 mM KH2PO4 (pH adjusted to 7.4 with KOH), 1 mM EDTA, 0.005% Triton X 100 and protease inhibitor cocktail (Sigma Aldrich). Thawed brains were homogenized using a Dounce homogenizer and centrifuged at 48000×g for 20 min. The pellet was resuspended in cold buffer and homogenized again using a Dounce homogenizer. […]
Numbers only, in nM.

Molecule: O=C1[C@H](N2CCC(c3ccc(O)cc3)CC2)CCN1Cc1ccc(F)cc1 (single isomer, unassigned)
Measurement Name: Ki
Result Number: 1.4

Task item: What value of measured Ki is listed for O=C1[C@H](N2CC[C@@H](c3ccc(O)cc3)[C@H](F)C2)CCN1Cc1ccc(C(F)F)cc1 (single isomer, unassigned) ?
Reply: 4

---

- Assay Text: Drug levels in plasma and brain after mouse forced swim test
- Assay type: in vivo
- Condition Label: brain, iv, mice, 1 mg/Kg i.v., at the end of FST, read-out: Drug levels in the brain
Measurement Name: concentration at 21 min (nM)
One number for each entry, in nM.

Task item: What value of measured concentration at 21 min is listed for Cc1ccc(CN2CC[C@@H](N3CC[C@@H](c4ccc(O)cc4)[C@H](F)C3)C2=O)cc1 [example 1] ?
Reply: 749

---

- Assay Text: Drug levels in plasma and brain after mouse forced swim test
- Type: in vivo
- Condition Label: plasma, iv, mice, 1 mg/Kg i.v., at the end of FST, read-out: Drug levels in the plasma
Measurement Name: concentration at 21 min (nM)
Give bare numbers, in nM.

Compound: Cc1ccc(CN2CC[C@@H](N3CC[C@@H](c4ccc(O)cc4)[C@H](F)C3)C2=O)cc1
concentration at 21 min, nM: 268

# ---- query compound ----
Task item: What value of measured concentration at 21 min is listed for O=C1[C@H](N2CC[C@@H](c3ccc(O)cc3)[C@H](F)C2)CCN1Cc1ccc(C(F)F)cc1 (single isomer, unassigned) ?
Reply: 360
